# MEASURED_ON: Carbonic anhydrase 2 (Homo sapiens)
# EXPERIMENT_DESCRIPTION: In vitro carbonic anhydrase activation in human cloned Carbonic anhydrase II (hCA II)
Given measured KA, output met if it is greater than or equal to 5 µM and not met if not.

Before answering, review these 3 worked examples.
{"columns": ["MOLECULE", "MEASURED_ON", "CATEGORY"],
 "data": [
  ["Cc1ccccc1S(=O)(=O)NC(=O)N[C@H](C(=O)NCCC(=O)N[C@@H](Cc1c[nH]cn1)C(=O)O)C(C)C", "Carbonic anhydrase 2 (Homo sapiens)", "met"],
  ["O=C(CCNC(=O)[C@H](Cc1c[nH]cn1)NC(=O)CCNC(=O)NS(=O)(=O)c1ccc(F)cc1)N[C@@H](Cc1c[nH]cn1)C(=O)O", "Carbonic anhydrase 2 (Homo sapiens)", "not met"],
  ["O=C(CCNC(=O)NS(=O)(=O)c1ccc(F)cc1)NCCC(=O)N[C@@H](Cc1c[nH]cn1)C(=O)O", "Carbonic anhydrase 2 (Homo sapiens)", "met"]
]}

Query: Could you tell me if the measured KA of Cc1ccccc1S(=O)(=O)NC(=O)N[C@@H](CCCCN)C(=O)NCCC(=O)N[C@@H](Cc1c[nH]cn1)C(=O)O reaches 5 µM or more?
Response: not met

Query: Could you tell me if the measured KA of Cc1ccccc1S(=O)(=O)NC(=O)NCCC(=O)N[C@@H](Cc1c[nH]cn1)C(=O)NCCC(=O)N[C@@H](Cc1c[nH]cn1)C(=O)O reaches 5 µM or more?
Response: not met

Query: Could you tell me if the measured KA of Cc1ccccc1S(=O)(=O)NC(=O)NCCCC(=O)NCCC(=O)N[C@@H](Cc1c[nH]cn1)C(=O)O reaches 5 µM or more?
Response: met

Query: Could you tell me if the measured KA of CC(C)C[C@H](NC(=O)NS(=O)(=O)c1ccc(F)cc1)C(=O)NCCC(=O)N[C@@H](Cc1c[nH]cn1)C(=O)O reaches 5 µM or more?
Response: met

Query: Could you tell me if the measured KA of CC(C)[C@H](NC(=O)NS(=O)(=O)c1ccc(F)cc1)C(=O)NCCC(=O)N[C@@H](Cc1c[nH]cn1)C(=O)O reaches 5 µM or more?
Response: met

Query: Could you tell me if the measured KA of Cc1ccccc1S(=O)(=O)NC(=O)NCCC(=O)NCCC(=O)N[C@@H](Cc1c[nH]cn1)C(=O)O reaches 5 µM or more?
Response: met

Query: Could you tell me if the measured KA of Cc1ccccc1S(=O)(=O)NC(=O)N1CCC[C@@H]1C(=O)NCCC(=O)NC(Cc1c[nH]cn1)C(=O)O (some centres not stated) reaches 5 µM or more?
Response: met

* * *

Listed here are molecules together with their documented log10(KA).
# MEASURED_ON: Carbonic anhydrase 2 (Homo sapiens) (UniProt P00918)
# EXPERIMENT_DESCRIPTION: In vitro carbonic anhydrase activation in human cloned Carbonic anhydrase II (hCA II)
Log10 applied to KA; unit prior to transform: µM.

Some entries whose results are on file:
{"columns": ["MOLECULE", "log10(KA)"],
 "data": [
  ["N=C(N)NCCC[C@H](NC(=O)NS(=O)(=O)c1ccc(F)cc1)C(=O)NCCC(=O)N[C@@H](Cc1c[nH]cn1)C(=O)O", 0.08],
  ["Cc1ccccc1S(=O)(=O)NC(=O)N[C@@H](CCC(N)=O)C(=O)NCCC(=O)N[C@@H](Cc1c[nH]cn1)C(=O)O", 0.78],
  ["NC(=O)CC[C@H](NC(=O)NS(=O)(=O)c1ccc(F)cc1)C(=O)NCCC(=O)N[C@@H](Cc1c[nH]cn1)C(=O)O", 0.70],
  ["O=C(CCNC(=O)[C@@H]1CCCN1C(=O)[C@H](Cc1ccccc1)NC(=O)NS(=O)(=O)c1ccc(F)cc1)N[C@@H](Cc1c[nH]cn1)C(=O)O", -1.70],
  ["CC[C@H](C)[C@@H](NC(=O)NS(=O)(=O)c1ccc(F)cc1)C(=O)NCCC(=O)NC(Cc1c[nH]cn1)C(=O)O (some centres not stated)", 0.90]
]}

Query: Dear colleague, I am looking for the recorded log10(KA) of the following molecule: NCCCC[C@H](NC(=O)NS(=O)(=O)c1ccc(F)cc1)C(=O)NCCC(=O)N[C@@H](Cc1c[nH]cn1)C(=O)O
Response: 0.11

Query: Dear colleague, I am looking for the recorded log10(KA) of the following molecule: Cc1ccccc1S(=O)(=O)NC(=O)NCC(=O)N[C@@H](Cc1c[nH]cn1)C(=O)NCCC(=O)N[C@@H](Cc1c[nH]cn1)C(=O)O
Response: -1.52

Query: Dear colleague, I am looking for the recorded log10(KA) of the following molecule: NCCC(=O)N[C@@H](Cc1c[nH]cn1)C(=O)O
Response: 1.54

Query: Dear colleague, I am looking for the recorded log10(KA) of the following molecule: Cc1ccccc1S(=O)(=O)NC(=O)N1CCCC1C(=O)NCC(=O)NCCC(=O)NC(Cc1c[nH]cn1)C(=O)O (configuration not stated)
Response: -1.52

Query: Dear colleague, I am looking for the recorded log10(KA) of the following molecule: O=C(CCNC(=O)[C@H]1CCCN1C(=O)NS(=O)(=O)c1ccc(F)cc1)NC(Cc1c[nH]cn1)C(=O)O (some centres not stated)
Response: 1.04

Query: Dear colleague, I am looking for the recorded log10(KA) of the following molecule: Cc1ccccc1S(=O)(=O)NC(=O)N[C@H](C(=O)NCCC(=O)N[C@@H](Cc1c[nH]cn1)C(=O)O)c1ccccc1
Response: 0.95

Query: Dear colleague, I am looking for the recorded log10(KA) of the following molecule: O=C(CCNC(=O)C1CCN(C(=O)NS(=O)(=O)c2ccc(F)cc2)CC1)NC(Cc1c[nH]cn1)C(=O)O (configuration not stated)
Response: 0.85

src = ChEMBL document CHEMBL1135797
